Values of pIC50 reported for Protein-glutamine gamma-glutamyltransferase (Cavia porcellus, UniProt Q7M0F8) appear below.
Quick note: pIC50 means taking -log10 of the concentration in moles per liter.

Completed entries (count: 2):
[ask] Given `Cc1ccc(C(=O)CCN(CCO)CCO)o1` , state its recorded pIC50.
[reply] 5.19

[ask] Item: `CN(CCO)CCC(=O)c1nccs1`
[reply] 5.33

Query compound follows.
[ask] Given `CC(C)(C)N(CCO)CCC(=O)c1ccccn1` , state its recorded pIC50.
[reply] 4.92

---

Values of IC50 reported for UniProt Q7M0F8 appear below.
Your answer should be a plain number; it is taken to be in µM.

[ask] Given `CCCCN(CCO)CCC(=O)c1ncc(C)s1` , state its recorded IC50.
[reply] 2.3

[ask] Item: `O=C(CCN(CCO)Cc1ccccc1)c1ccco1`
[reply] 1.3

[ask] Item: `Cc1cnc(C(=O)CCN(Cc2ccccc2)C(C)C)s1`
[reply] 0.85

[ask] Item: `Cc1ccc(C(=O)CCN(CCO)C(C)(C)C)o1`
[reply] 0.68

[ask] Item: `CCCCN(CCO)CCC(=O)c1ccc2c(Cl)cccc2c1`
[reply] 1.9

[ask] Item: `Cc1ccc(C(=O)CCN(C)Cc2ccccc2)o1`
[reply] 4.3

[ask] Item: `CC(C)(C)N(CCC(=O)c1ccccn1)Cc1ccccc1`
[reply] 1

---

Measured pIC50 of individual entries
Target chain: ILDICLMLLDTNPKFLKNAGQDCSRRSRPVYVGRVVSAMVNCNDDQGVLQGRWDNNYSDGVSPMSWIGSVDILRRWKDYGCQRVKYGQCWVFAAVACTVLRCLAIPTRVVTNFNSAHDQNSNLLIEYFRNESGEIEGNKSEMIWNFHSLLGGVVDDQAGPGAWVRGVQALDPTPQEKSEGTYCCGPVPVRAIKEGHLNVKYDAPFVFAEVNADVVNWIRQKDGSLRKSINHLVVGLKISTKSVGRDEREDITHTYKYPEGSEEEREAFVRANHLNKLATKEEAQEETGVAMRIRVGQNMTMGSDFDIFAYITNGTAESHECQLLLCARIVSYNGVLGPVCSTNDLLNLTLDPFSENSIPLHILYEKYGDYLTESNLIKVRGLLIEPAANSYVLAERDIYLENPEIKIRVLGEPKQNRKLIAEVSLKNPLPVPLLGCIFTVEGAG
Quick note: pIC50 means taking -log10 of the concentration in moles per liter.

Completed entries (count: 5):
[ask] Given `CCN(CCC(=O)c1ccsc1)Cc1ccccc1` , state its recorded pIC50.
[reply] 4.92

[ask] Item: `CC(C)N(CCC(=O)c1ccsc1)Cc1ccccc1`
[reply] 5.07

[ask] Item: `CC(C)N(CCC(=O)c1ccco1)Cc1ccccc1`
[reply] 6.49

[ask] Item: `CC(C)(C)N(CCC(=O)c1cccs1)Cc1ccccc1`
[reply] 6.36

[ask] Item: `CCCCN(CCO)CCC(=O)c1cnccn1`
[reply] 5.77

Query compound follows.
[ask] Given `CC(C)(C)N(CCC(=O)c1cnccn1)Cc1ccccc1` , state its recorded pIC50.
[reply] 6.24

---

TARGET_UNDER_TEST: Protein-glutamine gamma-glutamyltransferase (Cavia porcellus)
Measured IC50 of individual entries
Your answer should be a plain number; it is taken to be in µM.

Completed entries (count: 3):
[ask] Given `CN(CCO)CCC(=O)c1ccco1` , state its recorded IC50.
[reply] 1.2

[ask] Item: `CC(C)N(CCC(=O)c1ccc2ccccc2c1)Cc1ccccc1`
[reply] 4

[ask] Item: `O=C(CCN(CCO)Cc1ccccc1)c1cccnc1`
[reply] 2.3

Query compound follows.
[ask] Given `CCN(CCC(=O)c1cccnc1)Cc1ccccc1` , state its recorded IC50.
[reply] 1.7
